biological target: human adrenergic-α2A receptor (Homo sapiens); construct: expressed in transfected cells; host or cells: CHO cells, stably transfected; membrane preparation; assay: Radioligand binding experiment for hα2A-adrenergic receptor ([3H]raulwolscine); details: [3H]raulwolscine 1 nM, 60 minutes at 25° C.; read-out: h-α2A pIC50 (converted)
Sequence (P08913 whole entry): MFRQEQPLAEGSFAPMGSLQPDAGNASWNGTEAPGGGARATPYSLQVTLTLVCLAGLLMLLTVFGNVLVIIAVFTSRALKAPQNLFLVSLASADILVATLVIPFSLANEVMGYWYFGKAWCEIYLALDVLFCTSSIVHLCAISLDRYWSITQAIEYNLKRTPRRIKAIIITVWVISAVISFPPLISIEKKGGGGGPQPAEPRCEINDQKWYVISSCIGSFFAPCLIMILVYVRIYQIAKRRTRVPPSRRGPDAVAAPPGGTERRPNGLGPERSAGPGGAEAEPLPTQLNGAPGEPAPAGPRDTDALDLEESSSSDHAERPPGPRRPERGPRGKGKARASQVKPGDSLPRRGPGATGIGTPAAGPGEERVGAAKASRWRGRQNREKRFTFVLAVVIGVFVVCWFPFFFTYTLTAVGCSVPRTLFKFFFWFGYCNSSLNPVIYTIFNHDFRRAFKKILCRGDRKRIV
QUANTITY_MEASURED: IC50 (nM)

INSERT INTO measurements (molecule, quantity_measured, unit_of_measure, experimental_result) VALUES
  ('CN(C(=O)Cn1ccnc(NC2CCN(Cc3ccc4ccccc4c3)CC2)c1=O)c1ccccc1', 'IC50', 'nM', 158),
  ('O=c1c(N2CCN(Cc3ccc4ccccc4n3)CC2)nccn1Cc1ccccc1', 'IC50', 'nM', 631),
  ('O=c1c(NC2CCN(Cc3ccc4ccccc4c3)CC2)nccn1-c1ccc(CNCC2CCCO2)cc1 (stereo not shown) [1-79a]', 'IC50', 'nM', 158),
  ('O=c1[nH]c(-c2cccc(CN3CCC(F)CC3)c2)c(Cl)nc1NC1CCN(Cc2ccc3ccccc3c2)CC1', 'IC50', 'nM', 1260),
  ('CCCC(=O)N(Cc1ccc(-n2ccnc(NC3CCN(Cc4ccc5ccccc5c4)CC3)c2=O)cc1)C(=O)CCC', 'IC50', 'nM', 398),
  ('COc1ccc(Cn2c(-c3cccc(CN4CCN(C)CC4)c3)c(Cl)nc(NC3CCN(Cc4ccc5ccccc5c4)CC3)c2=O)cc1', 'IC50', 'nM', 501),
  ('O=c1c(NC2CCN(Cc3ccc4ccccc4c3)CC2)nccn1-c1nccs1', 'IC50', 'nM', 251),
  ('O=C1c2ccccc2C(=O)N1CCCn1ccnc(N2CCN(Cc3ccc4ccccc4c3)CC2)c1=O', 'IC50', 'nM', 631),
  ('CN(C)C(=O)Cn1ccnc(NC2CCN(Cc3ccc4ccccc4c3)CC2)c1=O', 'IC50', 'nM', 398),
  ('CCNC(=O)Cc1ccc(-n2ccnc(NC3CCN(Cc4ccc5ccccc5c4)CC3)c2=O)cc1', 'IC50', 'nM', 398);

1. COc1ccc(Cn2c(-c3cccc(CN4CCC(O)CC4)c3)c(Cl)nc(NC3CCN(Cc4ccc5ccccc5c4)CC3)c2=O)cc1
2. O=c1[nH]ccnc1NC1CCN(Cc2ccc3ncccc3c2)CC1
3. O=C(NCc1ccccc1)NCc1ccc(-n2ccnc(NC3CCN(Cc4ccc5ccccc5c4)CC3)c2=O)cc1
4. COc1ccc(Cn2c(-c3cccc(CN4CCC(F)CC4)c3)c(Cl)nc(NC3CCN(Cc4ccc5ccccc5c4)CC3)c2=O)cc1
5. O=C(NCc1ccc(-n2ccnc(NC3CCN(Cc4ccc5ccccc5c4)CC3)c2=O)cc1)c1ccno1
Exercise: Rank order required: IC50, descending. Give your ranking as a list of the labels in the requested order.
Key: 2, 5, 3, 1, 4

----------
QUANTITY_MEASURED: melting point (°C)

INSERT INTO assay_data (item_smiles, quantity_measured, experimental_result) VALUES
  ('O=c1c(NC2CCN(Cc3ccc4ccccc4c3)CC2)nccn1-c1ccsc1', 'melting point', 152.8),
  ('O=C1c2ccccc2C(=O)N1CC#CCn1ccnc(NC2CCN(Cc3ccc4ccccc4c3)CC2)c1=O', 'melting point', 96.3),
  ('CCCCNc1cccc(-n2ccnc(NC3CCN(Cc4ccc5ccccc5c4)CC3)c2=O)c1', 'melting point', 117.5),
  ('O=c1c(NC2CCN(Cc3ccc4ccccc4c3)CC2)nccn1-c1ccncc1', 'melting point', 125.1);

----------
molecular target: human adrenergic-α2C receptor (Homo sapiens, UniProt P18825); construct: expressed in transfected cells; host or cells: CHO cells, stably transfected; membrane preparation; test: Radioligand binding experiment for hα2C-adrenoceptor ([3H]raulwolscine); conditions: [3H]raulwolscine 1 nM, 60 minutes at 25° C.; read-out: h-α2C pIC50 (converted)
Sequence (P18825 whole entry): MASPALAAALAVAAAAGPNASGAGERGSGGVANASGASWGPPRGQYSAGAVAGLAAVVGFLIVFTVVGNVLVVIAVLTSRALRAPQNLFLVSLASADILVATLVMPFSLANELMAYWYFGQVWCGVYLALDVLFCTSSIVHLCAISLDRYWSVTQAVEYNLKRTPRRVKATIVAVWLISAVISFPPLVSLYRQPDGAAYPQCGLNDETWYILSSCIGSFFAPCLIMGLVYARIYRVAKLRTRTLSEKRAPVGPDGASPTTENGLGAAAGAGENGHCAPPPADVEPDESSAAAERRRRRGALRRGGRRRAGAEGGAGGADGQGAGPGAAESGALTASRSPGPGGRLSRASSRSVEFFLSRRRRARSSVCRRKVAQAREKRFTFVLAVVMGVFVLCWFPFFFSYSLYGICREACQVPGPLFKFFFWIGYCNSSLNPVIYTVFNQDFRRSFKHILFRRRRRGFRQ
QUANTITY_MEASURED: IC50 (nM)

INSERT INTO assay_data (item_smiles, quantity_measured, experimental_result) VALUES
  ('COCCC(=O)NCc1ccc(-n2ccnc(NC3CCN(Cc4ccc5ccccc5c4)CC3)c2=O)cc1', 'IC50', 31.6),
  ('CN1CCN(c2ccc(-n3ccnc(NC4CCN(Cc5ccc6ccccc6c5)CC4)c3=O)cc2)CC1', 'IC50', 25.1),
  ('CC(=O)NCCN(C)Cc1ccc(-n2ccnc(NC3CCN(Cc4ccc5ccccc5c4)CC3)c2=O)cc1', 'IC50', 25.1);

----------
Target: human adrenergic-α2C receptor (Homo sapiens, UniProt P18825)
Construct: expressed in transfected cells; host or cells: CHO cells, stably transfected; membrane preparation
Experiment: Radioligand binding experiment for hα2C-adrenoceptor ([3H]raulwolscine)
Details: [3H]raulwolscine 1 nM, 60 minutes at 25° C.; read-out: h-α2C pIC50 (converted)
Method: The interaction of the compounds of Formula (I) with α2C-adrenoceptor receptors was assessed in in vitro radioligand binding experiments. […] When equilibrium of binding is reached, the receptor bound radioactivity is separated from the non-bound radioactivity, and the receptor- or transporter-bound activity is counted. The interaction of the test compounds with the receptor is assessed in competition binding experiments. […]
QUANTITY_MEASURED: IC50 (µM)

Observe how each entry below is paired with its result.
INSERT INTO measurements (item_smiles, quantity_measured, experimental_result) VALUES
  ('CCCNC(=O)Cc1ccc(-n2ccnc(NC3CCN(Cc4ccc5ccccc5c4)CC3)c2=O)cc1', 'IC50', 0.02),
  ('NCc1ccc(Cn2ccnc(N3CCN(Cc4cccc5ccccc45)CC3)c2=O)cc1', 'IC50', 1),
  ('O=C(Cn1ccnc(NC2CCN(Cc3ccc4ccccc4c3)CC2)c1=O)NCCN1CCOCC1', 'IC50', 0.0501);

A. CN(Cc1ccccc1)C(=O)Cn1ccnc(NC2CCN(Cc3ccc4ccccc4c3)CC2)c1=O
B. O=C(NCCCn1ccnc(NC2CCN(Cc3ccc4ccccc4c3)CC2)c1=O)c1ccccc1
Exercise: Pick one: A or B . Which has the bigger IC50 number? Refer to your chosen item by its label in the answer.
Key: B
(B: 0.0316 µM, A: 0.02 µM)

----------
target: 5HT-transporter (Homo sapiens, UniProt P31645); construct: Human platelet membranes (Oceanix Biosciences Corporation, Hanover, Md., USA) were thawed; tissue Oceanix Biosciences Corporation, Hanover, Md., USA; host or cells: human platelet membranes; assay: Binding experiment for the 5HT-transporter ([3H]paroxetine, human platelet membranes); conditions: [3H]paroxetine 0.5 nM, 60 min at 25° C., read-out: h-5HTT pIC50 (converted)
Sequence (P31645 whole entry): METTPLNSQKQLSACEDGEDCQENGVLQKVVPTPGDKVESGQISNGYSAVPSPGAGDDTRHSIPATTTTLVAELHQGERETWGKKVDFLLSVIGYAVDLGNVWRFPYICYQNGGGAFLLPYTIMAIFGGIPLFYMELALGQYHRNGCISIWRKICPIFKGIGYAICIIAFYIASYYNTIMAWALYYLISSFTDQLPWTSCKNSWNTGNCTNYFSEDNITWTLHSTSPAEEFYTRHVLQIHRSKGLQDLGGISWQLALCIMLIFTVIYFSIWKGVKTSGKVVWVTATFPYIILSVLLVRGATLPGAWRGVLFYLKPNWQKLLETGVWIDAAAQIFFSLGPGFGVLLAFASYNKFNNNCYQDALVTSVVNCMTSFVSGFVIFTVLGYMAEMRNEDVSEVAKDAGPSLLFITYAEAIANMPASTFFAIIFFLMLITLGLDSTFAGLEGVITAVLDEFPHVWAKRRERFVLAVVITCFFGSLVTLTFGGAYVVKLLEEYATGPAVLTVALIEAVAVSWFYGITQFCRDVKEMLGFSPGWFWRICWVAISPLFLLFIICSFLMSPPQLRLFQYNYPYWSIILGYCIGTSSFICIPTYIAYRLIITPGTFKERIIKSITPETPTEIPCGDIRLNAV
QUANTITY_MEASURED: IC50 (nM)

INSERT INTO measurements (compound, unit_of_measure, experimental_result) VALUES
  ('O=c1[nH]c(-c2cccc(CN3CCCCC3)c2)c(Cl)nc1NC1CCN(Cc2ccc3ccccc3c2)CC1', 'nM', 631);

I. CN(C)C(=O)CCC(=O)NCc1ccc(-n2ccnc(NC3CCN(Cc4ccc5ccccc5c4)CC3)c2=O)cc1
II. COC(=O)CN(C)Cc1ccc(-n2ccnc(NC3CCN(Cc4ccc5ccccc5c4)CC3)c2=O)cc1
III. CCCn1ccnc(NC2CCN(Cc3ccc4ccccc4c3)CC2)c1=O
IV. O=C1c2ccccc2C(=O)N1CC#CCn1ccnc(NC2CCN(Cc3ccc4ccccc4c3)CC2)c1=O
V. O=C(NCc1ccc(-n2ccnc(NC3CCN(Cc4ccc5ccccc5c4)CC3)c2=O)cc1)NCc1cc(F)cc(C(F)(F)F)c1
Exercise: Parameters: sort_field (IC50), sort_dir (desc). Order the labels as requested and list them.
Key: II, III, V, I, IV
(II: 158 nM, III: 100 nM, V: 63.1 nM, I: 31.6 nM, IV: 15.8 nM)

I. CCOC(CN(Cc1ccccc1)C(=O)Cn1ccnc(NC2CCN(Cc3ccc4ccccc4c3)CC2)c1=O)OCC
II. O=C1c2ccccc2C(=O)N1CCCn1ccnc(NC2CCN(Cc3ccc4ccccc4c3)CC2)c1=O
III. COc1ccc(Cn2c(-c3cccc(CN4CCC(O)CC4)c3)c(Cl)nc(NC3CCN(Cc4ccc5ccccc5c4)CC3)c2=O)cc1
IV. CN(C)CCCn1ccnc(NC2CCN(Cc3ccc4ccccc4c3)CC2)c1=O
V. O=C(Cn1ccnc(NC2CCN(Cc3ccc4ccccc4c3)CC2)c1=O)Nc1ccc(F)cc1
Exercise: Order field: IC50 | Direction: descending (largest first) Provide your answer as the labels ordered per the instruction.
Key: IV, V, I, III, II
(IV: 251 nM, V: 158 nM, I: 100 nM, III: 31.6 nM, II: 12.6 nM)

I. O=c1c(NC2CCN(Cc3ccc4ccccc4c3)CC2)nccn1CCCOc1ccccc1
II. O=C1c2ccccc2C(=O)N1CCCn1ccnc(N2CCN(Cc3ccc4ccccc4c3)CC2)c1=O
III. CN(C)C(=O)Cn1ccnc(NC2CCN(Cc3ccc4ccccc4c3)CC2)c1=O
IV. O=c1c(NC2CCN(Cc3ccc4ccccc4c3)CC2)nccn1Cc1cc2ccccc2cn1
Exercise: Rank ascending by IC50. Please list each label once, in the requested order.
Key: I, II, IV, III
(I: 15.8 nM, II: 31.6 nM, IV: 126 nM, III: 3160 nM)

A. O=c1c(NC2CCN(Cc3ccc4ccccc4c3)CC2)nccn1-c1ccc(COCC2CCCO2)cc1 (stereo not shown)
B. O=c1c(NC2CCN(Cc3ccc4ccccc4c3)CC2)nccn1-c1ccc(CN2CCC(O)CC2)cc1
Exercise: Two entries are listed, A and B . Which one carries the higher IC50? Could you answer with the label of the item you picked?
Key: A
(A: 15.8 nM, B: 5.01 nM)

A. O=c1c(NC2CCN(Cc3ccc4ccccc4c3)CC2)nccn1-c1ccc(NCCN2CCC(F)CC2)cc1
B. O=C(NCCCn1ccnc(NC2CCN(Cc3ccc4ccccc4c3)CC2)c1=O)Nc1ccccc1
Exercise: Between the entries labelled A and B , which has a larger IC50 value on record? Choose, then provide that item's label.
Key: A

A. O=C(CCN1CCOCC1)Nc1ccc(-n2ccnc(NC3CCN(Cc4ccc5ccccc5c4)CC3)c2=O)cc1
B. CC(C)(C)OC(=O)NCc1ccc(-n2ccnc(NC3CCN(Cc4ccc5ccccc5c4)CC3)c2=O)cc1
C. O=c1c(NC2CCN(Cc3ccc4ccccc4c3)CC2)nccn1CCOC1CCCCO1 (stereo not shown)
Exercise: // ranking: key=IC50, reverse=True List labels; respect the requested ordering.
Key: C, B, A

A. O=C(CCn1ccnc(NC2CCN(Cc3ccc4ncccc4c3)CC2)c1=O)c1ccccc1
B. O=C(NCc1ccc(-n2ccnc(NC3CCN(Cc4ccc5ccccc5c4)CC3)c2=O)cc1)c1ccno1
C. CCCCN(Cc1ccccc1)C(=O)Cn1ccnc(NC2CCN(Cc3ccc4ccccc4c3)CC2)c1=O
Exercise: // ascending sort on recorded IC50 List labels; respect the requested ordering.
Key: B, A, C
(B: 12.6 nM, A: 25.1 nM, C: 79.4 nM)

Reference source: patent US20080269251A1
